Measured values drawn from PubChem BioAssay (NCATS) for this set.

Assay: Quantitative highthroughput screen to assess conditional lethalithy of P12 Ichikawa cells grown in RPMI1640 with untreated serum (RPMI+s) (AID 1963881); further: nearly all actives have a fitted effect of over 35% in size
Settings: ATP luminescence, 48 h; viability; series mostly up to 45.8 µM
Records with an inconclusive call do not appear. The source made the active and inactive calls. The call rests on the fitted dose curve; in most records, active means well fitted cell-killing curve with a large enough effect; inconclusive means small, poorly fitted or top-dose-only effect; inactive means flat fitted curve, though single readings scatter.
Property: outcome

O=[N+]([O-])c1ccc(Nc2ccccc2-c2ccccc2)c2nonc12: inactive
Cn1c(=O)c2c(ncn2CC(O)CO)n(C)c1=O (stereo not drawn): inactive
Clc1cccc(-n2nnnc2NCc2ccccc2Oc2ccccn2)c1Cl: inactive

---

Assay: Quantitative highthroughput screen to assess conditional lethalithy of P12 Ichikawa cells grown in RPMI1640 with untreated serum (RPMI+s) (AID 1963881); further: nearly all actives have a fitted effect of over 35% in size
Conditions: ATP luminescence, 48 h; viability; series mostly up to 45.8 µM
Results filed as inconclusive are left out. Activity calls are given as the source filed them. The call rests on the fitted dose curve; in most records, active means well fitted cell-killing curve with a large enough effect; inconclusive means small, poorly fitted or top-dose-only effect; inactive means flat fitted curve, though single readings scatter.
Outcome (select one): active, inactive

How was Nc1cc(C(Cl)=C(Cl)Cl)c(S(N)(=O)=O)cc1S(N)(=O)=O classified in this test?
active

How was CC#CCn1c(N2CCC[C@@H](N)C2)nc2c1c(=O)n(Cc1nc(C)c3ccccc3n1)c(=O)n2C classified in this test?
inactive

How was Cc1ccc(C(=O)Nc2ccc(Oc3cc4cnn(C)c4cc3-c3cn[nH]c3)c(F)c2)c(=O)n1-c1ccc(F)cc1 classified in this test?
active

How was NC(=O)c1ccc(-c2nc(-c3ccc4c(c3)OCCO4)c(-c3ccccn3)[nH]2)cc1 classified in this test?
inactive

How was O=NN(CCCl)C(=O)NC1CCCCC1 classified in this test?
inactive

How was C#CCN(C)CC1=Cc2ccccc2Oc2ccccc21 classified in this test?
inactive

How was O=C(Nc1cccnn1)N1CCC(=Cc2cccc(Oc3ccc(C(F)(F)F)cn3)c2)CC1 classified in this test?
inactive

How was COc1cc(F)c(F)c(Nc2ccc(I)cc2F)c1NS(=O)(=O)C1(C[C@H](O)CO)CC1 classified in this test?
inactive

How was Oc1ccc(OCc2ccccc2)cc1 classified in this test?
active

How was O=C1C(c2c(O)[nH]c3ccccc23)=Nc2ccccc21 classified in this test?
inactive

---

Assay: Viability qHTS for spleen associated tyrosine kinase inhibitor (SYKi) naive MV4-11 cells (AID 1963823); further: nearly all actives have a fitted effect of over 40% in size
Conditions: MV4-11 AML viability, CellTiter-Glo luminescence, 72 h; series mostly up to 45 µM
Protocol: Department of Medicine, Hematology/Oncology University Hospital Frankfurt, Germany. Trials have shown promising clinical activity of the selective SYK inhibitor entospletinib in patients with high expressing HOXA9/MEIS1 acute leukemias. […] 7; Detection; Luminescence; ViewLux plate reader (PerkinElmer). […] 1. Quantitative high-throughput screening (qHTS) of small molecule compounds was conducted on naive SYKi MV4-11 cell line. […] 7. Luminescence was measured on a ViewLux plate reader (PerkinElmer).
Inconclusive results are not listed. The source made the active and inactive calls. Calls follow the shape of the dose curve; as a rule, active = well fitted cell-killing curve with a large enough effect; inconclusive = small, poorly fitted or top-dose-only effect, or effect the other way; inactive = no such curve, though single readings can be large or run the other way.
Outcome (select one): T (active), F (inactive)

How was COc1cccc(NC[C@@H](O)Cn2c3ccc(Br)cc3c3cc(Br)ccc32)c1 classified in this test?
T

How was C[C@@H]1[C@H](O)[C@@H](C)/C=C/C=C/C=C/C=C/C=C/C=C/C=C/[C@H](O[C@@H]2O[C@H](C)[C@@H](O)[C@H](N)[C@@H]2O)C[C@@H]2O[C@](O)(C[C@@H](O)C[C@@H](O)[C@H](O)CC[C@@H](O)C[C@@H](O)CC(=O)O[C@H]1C)C[C@H](O)[C@H]2C(=O)O classified in this test?
F

How was CNC(C)C(=O)NC(C(=O)N1CCCC1C(=O)Nc1cccc2ncccc12)C(C)C (stereo unspecified) classified in this test?
F

How was C=C[C@H]1[C@H](O[C@@H]2O[C@H](CO)[C@@H](O)[C@H](O)[C@H]2O)OC=C(C(=O)OC)[C@H]1C[C@@H]1c2cc(O)c(O)cc2CCN1C(C)=O classified in this test?
F

How was CCCCC(=O)N(Cc1ccc(-c2ccccc2-c2nn[nH]n2)cc1)C(C(=O)O)C(C)C (stereo unspecified) classified in this test?
F

How was COc1ccc2[nH]c3c(c2c1)CCN[C@]31CS[C@@H]2c3c(OC(C)=O)c(C)c4c(c3[C@H](COC1=O)N1[C@@H]2[C@H]2c3c(cc(C)c(OC)c3O)C[C@@H]([C@@H]1O)N2C)OCO4 classified in this test?
T

---

Assay: Quantitative highthroughput screen to assess conditional lethalithy of NOMO1 cells grown in Human Plasma-Like Medium with dialyzed fetal bovine serum (HPLM+ds) (AID 1963878); further: nearly all actives have a fitted effect of over 35% in size
Settings: NOMO1 AML cells in HPLM+ds, CellTiter-Glo viability, 48 h; series mostly up to 45.8 µM
Results filed as inconclusive are left out. Activity calls are given as the source filed them. Calls follow the shape of the dose curve; as a rule, active = well fitted cell-killing curve with a large enough effect; inconclusive = small, poorly fitted or top-dose-only effect, or effect the other way; inactive = no such curve, though single readings can be large or run the other way.
Outcome (select one): active, inactive

How was CCN1CCN(C(=O)N[C@H](C(=O)N[C@@H]2C(=O)N3C(C(=O)O)=C(CSc4nnnn4C)CS[C@@H]23)c2ccc(O)cc2)C(=O)C1=O classified in this test?
inactive

How was CN(C)c1nc(N(C)C)nc(N(C)C)n1 classified in this test?
inactive

How was OCCC#Cc1nc(-c2ccc(F)cc2)c(-c2ccncc2)n1CCCc1ccccc1 classified in this test?
inactive

How was CNC(=O)c1ccc2c(C(=Nc3cccc(CN(C)C)c3)c3ccccc3)c(O)[nH]c2c1 classified in this test?
active

How was Cc1ccc(-c2ncn(-c3ccc(Nc4nccc(-c5cccc(N6CCOCC6)c5)n4)cc3)n2)cn1 classified in this test?
active

How was C[Se]CCC(N)C(=O)O (configuration not stated) classified in this test?
inactive

How was CC(C)[C@H](C(=O)Nc1ccc(C(=O)NO)cc1)c1ccccc1 classified in this test?
active

How was OC[C@@H](O)[C@@H](O)[C@H](O)[C@@H](O)CO classified in this test?
inactive

How was CN1[C@@H]2CCC[C@@H]1CC(NC(=O)c1nn(C)c3ccccc13)C2 (some centres not stated) classified in this test?
inactive

How was C1Cc2[nH]nc(-c3nn[nH]n3)c2C1 classified in this test?
inactive

How was CN(C)c1ccc(-c2nc3ncc(Cl)c(N4CCN(CC(=O)Nc5nccs5)CC4)c3[nH]2)cc1 classified in this test?
active

How was O=C(O)c1cc(O)c2c(c1)C(=O)c1cccc(O)c1C2=O classified in this test?
inactive

How was c1ccc2c(CCNc3ccc(Nc4ccncc4)cc3)c[nH]c2c1 classified in this test?
active

How was OCC(O)C(O)C(O)CO (configuration not stated) classified in this test?
inactive

How was COc1ccc2ccc(=O)oc2c1CC=C(C)C classified in this test?
inactive

How was Nc1ccccc1NC(=O)c1ccc(CNc2nccc(-c3cccnc3)n2)cc1 classified in this test?
active

How was NC1(c2ccc(-c3nc4ccn5c(=O)[nH]nc5c4cc3-c3ccccc3)cc2)CCC1 classified in this test?
active

How was Clc1ccc(CCC(Cn2ccnc2)Sc2c(Cl)cccc2Cl)cc1 (configuration not stated) classified in this test?
inactive

How was CN1CC[C@@H](c2c(O)cc(O)c3c(=O)cc(-c4ccccc4Cl)oc23)[C@@H](O)C1 classified in this test?
active

How was C[C@H](NCc1ccc(OCc2cccc(F)c2)cc1)C(N)=O classified in this test?
active

How was COCCNCCCn1c(C(=O)CF)c(-c2ccc(C)cc2)c2c(N)ncnc21 classified in this test?
inactive

How was CN(C)CC(C)(C)CNc1nn2c(-c3ccccc3)nnc2cc1C1CCC1 classified in this test?
active

---

Assay: Quantitative highthroughput screen to assess conditional lethalithy of SEM cells grown in RPMI1640 with unreated serum (RPMI+s) (AID 1963883); further: nearly all actives have a fitted effect of over 35% in size; further: potency means the concentration at half of the fitted maximal effect
Conditions: SEM B-ALL cells, CellTiter-Glo viability, 48 h; series mostly up to 45.8 µM
Inconclusive results are not listed. The source made the active and inactive calls. Calls come from the whole dose curve; as a rule, active = well fitted cell-killing curve with a large enough effect; inconclusive = small, poorly fitted or top-dose-only effect, or effect the other way; inactive = no such curve, though single readings can be large or run the other way.
Property: Potency

Would you please look over these solved cases?
CCCCOCCOc1nc(-c2ccc(C(=O)O)c(F)c2)sc1C: inactive
CC(C)(C(=O)NCC(F)(F)C(F)(F)F)C(=O)N[C@@H]1C(=O)Nc2ccccc2-c2ccccc21: 16600 nM (active)
CN1CCC(COc2cnc(-c3cccc(Cn4nc(-c5cccc(C#N)c5)ccc4=O)c3)nc2)CC1: inactive
Nc1ncnc2nc(-c3ccc(N4CCOCC4)nc3)cc(-c3cccc(Br)c3)c12: inactive

Item under review: Cc1nc(NC(=O)N2CCC[C@@H]2C(N)=O)sc1-c1csc(C(C)(C)C)n1 . Reported Potency?
743 nM (active)

Item under review: O=C(C[C@@H]1CC=CCCC(=O)O[C@H](c2ccccc2)CNC1=O)NCc1ccc(Cl)cc1 . Reported Potency?
inactive

Item under review: CCC(C)(C)c1ccc(CC(C)CN2C[C@@H](C)O[C@@H](C)C2)cc1 (stereo partly drawn) . Reported Potency?
inactive

Item under review: CC[C@@]1([C@@H]2O[C@@H]([C@H]3O[C@@](O)(CO)[C@H](C)C[C@H]3C)C[C@H]2C)CC[C@H]([C@]2(C)CC[C@]3(C[C@H](O)[C@@H](C)[C@@H]([C@@H](C)[C@@H](OC)[C@H](C)C(=O)O)O3)O2)O1 . Reported Potency?
457 nM (active)
